TESTED_TARGET: Prostaglandin G/H synthase 1 (Ovis aries)
MEASUREMENT_NOTES: Inhibition of ovine COX-1 using arachidonic acid as substrate assessed as residual activity at 10 uM preincubated for 5 mins followed by substrate addition measured after 5 mins by HPLC analysis relative to control
Measured Activity accompanies every entry in the list below.
API: value field is a number in %; no unit string.

These recorded examples may help you get a feel for the data.
{"columns": ["MOLECULE_SMILES", "OUTPUT_UNIT", "Activity"],
 "data": [
  ["CC(C)=CCC[C@H](C(=O)O)[C@@H]1CC[C@]2(C)C3=C(CC[C@@]12C)[C@@]1(C)CC[C@H](O)C(C)(C)[C@@H]1CC3", "%", 82.3],
  ["CC(C)=CCC[C@H](C(=O)O)[C@H]1CC[C@]2(C)C3=C(CC[C@@]12C)[C@@]1(C)CCC(=O)C(C)(C)[C@H]1CC3", "%", 81.1]
]}

Attention now turns to another entry.
## Input Please report Activity for the following compound: CC(C)[C@@H]1CC[C@]2(C)[C@H](C(=O)C=C3[C@@H]4[C@@H](C)[C@H](C)CC[C@]4(C)CC[C@]32C)[C@@]1(C)CCC(=O)O
## Output 64.8
